target: Nuclear receptor coactivator 1 (Homo sapiens) (UniProt Q15788); assay: SRC1 coactivator transcriptional activity inhibitors, confirmation, cell-based, luminescence, quadruplicate (AID 588820); settings: HEK293 GAL4-SRC1 luciferase reporter, at 3.6 µM, hits give high values;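 note: 0% = DMSO wells and 100% = gossypol 36 µM treated wells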
Sequence (Q15788 whole entry, looked up, the tested form may be a part): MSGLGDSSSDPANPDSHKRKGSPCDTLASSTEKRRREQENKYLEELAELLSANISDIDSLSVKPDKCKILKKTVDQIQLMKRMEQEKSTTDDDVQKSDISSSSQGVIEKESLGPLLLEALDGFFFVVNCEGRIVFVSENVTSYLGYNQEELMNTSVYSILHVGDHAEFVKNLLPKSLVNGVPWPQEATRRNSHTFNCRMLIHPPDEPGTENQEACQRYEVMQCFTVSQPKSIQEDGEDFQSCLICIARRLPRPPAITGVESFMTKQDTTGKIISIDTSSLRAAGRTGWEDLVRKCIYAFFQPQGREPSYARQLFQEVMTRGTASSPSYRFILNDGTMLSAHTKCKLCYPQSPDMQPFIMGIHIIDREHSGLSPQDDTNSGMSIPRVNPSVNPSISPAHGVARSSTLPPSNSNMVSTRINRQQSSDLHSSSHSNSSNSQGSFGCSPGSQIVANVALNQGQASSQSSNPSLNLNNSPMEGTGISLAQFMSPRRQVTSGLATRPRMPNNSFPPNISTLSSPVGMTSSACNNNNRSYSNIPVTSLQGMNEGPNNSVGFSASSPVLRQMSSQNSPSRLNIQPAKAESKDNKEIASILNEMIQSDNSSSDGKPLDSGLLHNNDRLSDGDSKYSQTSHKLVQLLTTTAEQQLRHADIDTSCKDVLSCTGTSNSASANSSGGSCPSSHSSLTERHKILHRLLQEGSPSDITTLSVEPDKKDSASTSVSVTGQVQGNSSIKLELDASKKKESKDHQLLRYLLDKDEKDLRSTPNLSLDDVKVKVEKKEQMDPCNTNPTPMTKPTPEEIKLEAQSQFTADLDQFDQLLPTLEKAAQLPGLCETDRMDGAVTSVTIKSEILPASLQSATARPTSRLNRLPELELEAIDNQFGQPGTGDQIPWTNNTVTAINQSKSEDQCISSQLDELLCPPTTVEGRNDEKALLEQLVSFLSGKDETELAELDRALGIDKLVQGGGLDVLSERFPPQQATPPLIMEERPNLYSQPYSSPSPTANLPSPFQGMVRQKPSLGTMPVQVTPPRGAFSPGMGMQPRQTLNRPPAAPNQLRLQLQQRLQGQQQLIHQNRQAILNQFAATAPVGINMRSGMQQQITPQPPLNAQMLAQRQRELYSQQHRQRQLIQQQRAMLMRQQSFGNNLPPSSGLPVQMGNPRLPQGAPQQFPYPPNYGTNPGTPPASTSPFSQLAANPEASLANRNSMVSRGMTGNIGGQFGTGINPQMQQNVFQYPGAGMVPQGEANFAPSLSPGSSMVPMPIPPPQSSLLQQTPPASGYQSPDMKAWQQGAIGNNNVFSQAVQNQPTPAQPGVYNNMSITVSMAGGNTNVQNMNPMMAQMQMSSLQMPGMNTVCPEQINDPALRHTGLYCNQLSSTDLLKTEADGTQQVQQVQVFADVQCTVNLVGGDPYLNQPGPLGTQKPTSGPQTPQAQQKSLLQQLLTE
Label rule, in plain words: inhibition of 50% and up is Fulfilled, under 50% is Not fulfilled.

[[record]]
compound = "CC(=O)OCC12CC(OC(=O)CC(C)C)C(C)=CC1OC1C(O)C(OC(C)=O)C2(C)C12CO2 (stereo unspecified)"
class_label = "Fulfilled"

[[record]]
compound = "CC[n+]1c(-c2ccccc2)c2cc(N)ccc2c2ccc(N)cc21"
class_label = "Not fulfilled"

[[record]]
compound = "O=C1CN=C(c2ccc[nH]2)c2cc(Cl)ccc2N1"
class_label = "Fulfilled"

[[record]]
compound = "CC(=O)OC1CC(OC2C(O)CC(OC3C(O)CC(OC4CCC5(C)C(CCC6C5CCC5(C)C(C7=CC(=O)OC7)C(O)CC65O)C4)OC3C)OC2C)OC(C)C1OC1OC(CO)C(O)C(O)C1O (stereo unspecified)"
class_label = "Not fulfilled"

[[record]]
compound = "COC1C(O)C(C)OC(OC2CCC3(C=O)C(CCC4C3CCC3(C)C(C5=CC(=O)OC5)CCC43O)C2)C1O (stereo unspecified)"
class_label = "Fulfilled"


Field: next compound
Task: Does the compound `Cc1ccc(-c2cc(-c3ccccc3)cc(-c3ccccc3)[n+]2-c2ccccc2)cc1` have recorded inhibition that is 50% or more?
Output: Fulfilled

---

test: StAR promoter reporter inhibitors, counter-screen for LRH-1 inverse agonist project, cell-based, luminescence, high throughput (AID 651611); conditions: StAR promoter luciferase reporter counterscreen, at 3.6 µM, hits give high values
measurement label: inhibition (%)
Answers are plain numbers, in %.

Reference set (5 entries):
[[record]]
compound = "CCC(C)(O)C(=O)OC1C(=O)OC2CC3C(C)=CC(O)C(O)C3(C)C3C4(O)OCC23C1C(C)C4O (configuration not stated)"
numeric_value = 79.5

[[record]]
compound = "N#CC1c2ccccc2-n2nncc2CN1Cc1cc(Cl)cc(Cl)c1 (configuration not stated)"
numeric_value = 90.5

[[record]]
compound = "C=C1C(=O)O[C@@H]2C[C@@H](C)[C@@H]3C=CC(=O)[C@@]3(C)[C@@H](OC(=O)CC(=O)O[C@H]3[C@@H]4C(=C)C(=O)O[C@@H]4C[C@@H](C)[C@@H]4C=CC(=O)[C@]43C)[C@H]12"
numeric_value = 94.5

[[record]]
compound = "CCC1(OC(=O)CN)C(=O)OCc2c1cc1n(c2=O)Cc2cc3ccccc3nc2-1 (configuration not stated)"
numeric_value = 84

[[record]]
compound = "Nc1ncnc2c1ccn2[C@@H]1O[C@H](CO)[C@@H](O)[C@H]1O"
numeric_value = 90.9


I need inhibition for every entry listed below, if you could help.
1. CCOC(=O)[C@]12Cc3cc(Cl)ccc3[C@H]1N(C1CCCCC1)C(=O)c1cc(OC)ccc12
2. CC12CCC(O)CC1CCC1C2CCC2(C)C(C3=CC(=O)OC3)CCC12O (configuration not stated)
3. CCN(CC)C1=NC(=[N+](CC)CC)c2ccccc21
4. CC12CCC(O)CC1CCC1C2CCC2(C)C(C3=CC(=O)OC3)C(O)CC12O (configuration not stated)
5. CC(=O)OC1C(O)C(C)OC(OC2C(OC(=O)C3CCC4C(C3)OC3(CC(OC(=O)/C=C/c5ccccc5)C(C)CO3)C43CO3)OC(C)C(O)C2OC(C)=O)C1O (configuration not stated)
6. NC(Cc1ccc(F)cc1)c1csc(Nc2ncccn2)n1 (configuration not stated)
7. COC1C(O)C(C)OC(OC2CCC3(C)C(CCC4C3C(O)CC3(C)C(C5=CC(=O)OC5)CCC43O)C2)C1O (configuration not stated)

Output:
1. 87.5
2. 95.7
3. 33.7
4. 92.6
5. 96.1
6. 40.1
7. 97.3

---

target: Steroidogenic factor 1 (Homo sapiens) (UniProt Q13285); assay: SF1 (NR5A1) inverse agonists, counter-screen for LRH-1 inverse agonist project, cell-based, luminescence, high throughput (AID 651614); conditions: cell-based SF1 luciferase reporter, at 3.6 µM, hits give high values;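 note: cells cotransfected with StAR promoter reporter and SF1 expression vector; 0% = vehicle on cells with receptor and 100% = vehicle on cells lacking receptor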
Sequence (Q13285 whole entry, looked up): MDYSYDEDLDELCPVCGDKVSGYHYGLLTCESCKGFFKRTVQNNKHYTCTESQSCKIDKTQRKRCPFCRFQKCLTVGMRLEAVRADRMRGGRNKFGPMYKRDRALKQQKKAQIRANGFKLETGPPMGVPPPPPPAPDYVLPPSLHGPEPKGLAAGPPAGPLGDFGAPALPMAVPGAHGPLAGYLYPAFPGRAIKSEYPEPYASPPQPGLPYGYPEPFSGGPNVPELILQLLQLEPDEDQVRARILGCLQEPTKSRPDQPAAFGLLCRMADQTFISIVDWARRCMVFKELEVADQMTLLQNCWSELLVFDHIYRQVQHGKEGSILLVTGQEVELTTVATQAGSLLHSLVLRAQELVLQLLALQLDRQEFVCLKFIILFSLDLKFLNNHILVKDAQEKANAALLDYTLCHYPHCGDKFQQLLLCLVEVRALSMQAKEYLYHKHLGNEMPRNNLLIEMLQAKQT
Label rule, in plain words: inhibition of 90% and up is t, under 90% is f.

// known answers, use as guide
[[record]]
compound = "CC[C@@]1(O)C(=O)OCc2c1cc1n(c2=O)Cc2cc3c(NC(=O)CN)cccc3nc2-1"
class_label = "f"

[[record]]
compound = "COc1ccccc1-n1c(/C=C/c2ccccn2)nc2ccccc2c1=O"
class_label = "f"

[[record]]
compound = "C[C@H]1[C@@H](OS(=O)(=O)O)C[C@@H]2C[C@H]([C@@H](O)c3cc(=O)[nH]c(=O)[nH]3)NC3=NC[C@H]1N32"
class_label = "t"

[[record]]
compound = "CC[C@@H](O)C[C@H]1CCC[C@@]2(C[C@@H]3OC(=O)/C=C/[C@@](C)(O)[C@@H](O)[C@H](C)[C@@H](O)[C@H](OC4CCC(N(C)C)C(C)O4)[C@@H](O)[C@](C)(O)CCCCC/C=C/[C@@H]4CC(C)(C)O[C@@]4(O)C[C@H](O2)[C@H]3C)O1 (some centres not stated)"
class_label = "t"

[[record]]
compound = "Nc1ncnc2c1ccn2[C@@H]1O[C@H](CO)[C@@H](O)[C@H]1O"
class_label = "t"


Field: next compound
Task: Does the compound COc1ccc(CC2NCC(O)C2OC(C)=O)cc1 (configuration not stated) have recorded inhibition that is 90% or more?
Output: t

---

test: VP16 transactivation inhibitors, counter-screen for SRC1 inhibitor project, cell-based, luminescence, high throughput (AID 588824); details: cell-based VP16 transactivation luciferase luminescence; at 3.6 µM; hits give high values
Label rule, in plain words: inhibition of 40% and up is criterion met, under 40% is criterion not met.

// known answers, use as guide
[[record]]
molecule = "CC12CCC(O)CC1CCC1C2CCC2(C)C(C3=CC(=O)OC3)CCC12O (centres undefined)"
class_label = "criterion met"

[[record]]
molecule = "CC(=O)c1cn(Cc2ccccc2F)c2ccccc12"
class_label = "criterion not met"

[[record]]
molecule = "COc1ccc(C[C@H]2NC[C@H](O)[C@H]2OC(C)=O)cc1"
class_label = "criterion met"

[[record]]
molecule = "CC(N)C(=O)NC1C2C(=C(O)CC(O)C2O)C(=O)OC1(C)C(Cl)Cl (centres undefined)"
class_label = "criterion met"

[[record]]
molecule = "CCC(C)C1NC(=O)C(NC(=O)C(CC(C)C)N(C)C(=O)C2CCCN2C(=O)C(C)O)C(C)OC(=O)C(Cc2ccc(OC)cc2)N(C)C(=O)C2CCCN2C(=O)C(CC(C)C)NC(=O)[C@H](C)C(=O)[C@H](C(C)C)OC(=O)CC1O (some centres undefined)"
class_label = "criterion met"


Task: Does the molecule O=c1[nH]c2ccccc2n1C1CCN(C(c2ccccc2OC(F)(F)F)c2nnnn2-c2ccc3c(c2)OCCO3)CC1 (centres undefined) have recorded inhibition that is 40% or more?
Output: criterion not met

Task: Does the molecule CC1=CC2OC3CC4OC(=O)C=CC=CC(=O)OCCC(C)C(O)C(=O)OCC2(CC1O)C4(C)C31CO1 (centres undefined) have recorded inhibition that is 40% or more?
Output: criterion met

Task: Does the molecule `CCN(CC)C(=O)c1ccc(NC(=O)c2cccc(S(=O)(=O)N3CCN(Cc4ccccc4)CC3)c2)cc1` have recorded inhibition that is 40% or more?
Output: criterion not met

---

assay: VP16 transactivation reporter inhibitors, counter-screen for LRH-1 inverse agonist project, cell-based, luminescence, high throughput (AID 651615); settings: Gal4-VP16 luciferase reporter cells, at 3.6 µM, hits give high values
measurement label: inhibition (%)
Answers are plain numbers, in %.

I need inhibition for every entry listed below, if you could help.
1. Cc1cc(S(=O)(=O)NC(C)C)ccc1OCC(=O)N1CCN(Cc2ccc3c(c2)OCO3)CC1
2. CC[C@@]1(O)C(=O)OCc2c1cc1n(c2=O)Cc2cc3c(NC(=O)CN)cccc3nc2-1

Output:
19.5
9.93

I need inhibition for every entry listed below, if you could help.
1. CC1OC(OC2C=C3CCC4C(CCC5(C)C(c6ccc(=O)oc6)CCC45O)C3(C)CC2)C(O)C(OC2OC(CO)C(O)C(O)C2O)C1O (stereo unspecified)
2. O=Cc1cn(Cc2cccc([N+](=O)[O-])c2)c2ccccc12
3. C1=NCCc2c1[nH]c1ccccc21
4. C=CCn1c(O)c(C(C)=NCc2cc(OC)cc(OC)c2)c(=O)[nH]c1=O
5. CCOC(=O)[C@]12Cc3c(cc(OC)c(OC)c3OC)[C@H]1N(C1CCCCC1)C(=O)c1ccccc12

Output:
1: 94.4; 2: 14.4; 3: -11.6; 4: 43.6; 5: 89.3
